- assay.summary: method code SF-AS, from PMID: 6540096
- recorded.conditions: pH 7.5
I'd be grateful if you could share measured logD for these entries.

input: Give its logD value. Item: O=C1CN=C(c2ccccc2Cl)c2cc([N+](=O)[O-])ccc2N1
output: 2.5

input: Give its logD value. Item: CN(C)C(=O)O[C@H]1N=C(c2ccccc2)c2cc(Cl)ccc2N(C)C1=O
output: 2.88

----------
- assay.summary: method code SF-HPLC, from DOI: 10.1021/jm00112a026, PMID: 1875345
- recorded.conditions: pH 7.4
assay.endpoint: logD

input: Give its logD value. Item: OC(CN1C2C3CCC(C3)C21)Cn1ccnc1 (configuration not stated)
output: 1.6

input: Give its logD value. Item: CCOC(=O)C1CCC2C(C1)N2CC(O)Cn1ccnc1 (configuration not stated)
output: 1.13

----------
- assay.summary: method code SF, from DOI: 10.1248/yakushi1947.93.11_1452, PMID: 4273378
assay.endpoint: logP

input: Give its logP value. Item: CNC(=O)c1cccnc1
output: 0

----------
- assay.summary: method code SF-GR, from DOI: 10.1021/jm00199a032, PMID: 619145
assay.endpoint: logP

input: Give its logP value. Item: S=P(NN=Cc1ccccn1)(NN=Cc1ccccn1)Oc1ccccc1
output: 1.62

----------
I'd be grateful if you could share measured logP for these entries.
- assay.summary: method code SF-HPLC, from DOI: 10.1248/cpb.41.694
Give a plain numeric answer without units written out.

input: Give its logP value. Item: CN(C)C(=O)OCc1cccc([N+](=O)[O-])c1
output: 1.98

input: Give its logP value. Item: CN(C)C(=O)OCc1ccc(C(N)=O)cc1
output: 0.77

input: Give its logP value. Item: CSc1ccc(COC(=O)N(C)C)cc1
output: 2.86

----------
- assay.summary: method code AS, from DOI: 10.1081/jlc-120022394
assay.endpoint: logP
Give a plain numeric answer without units written out.

input: Give its logP value. Item: CCOC(=O)C(=Cc1ccc(Cl)cc1)NC=O
output: 2.65

----------
I'd be grateful if you could share measured logP for these entries.
Give a plain numeric answer without units written out.

input: Give its logP value. Item: C=CCN1CCc2cccc(Cl)c2CC1
output: 3.3

input: Give its logP value. Item: NC(=O)CCN1CCc2cccc(Cl)c2CC1
output: 1.64

input: Give its logP value. Item: CN1CCc2cccc(Cl)c2CC1
output: 2.92

input: Give its logP value. Item: NC(=O)NCCN1CCc2cccc(Cl)c2CC1
output: 2.07

----------
- assay.summary: method code SF, from DOI: 10.1021/jm200015a, PMID: 21630666
- recorded.conditions: pH 7.4
assay.endpoint: logD

input: Give its logD value. Item: O=c1c2c([nH]c3ccc(Br)cc13)CCSC2
output: 0.9

input: Give its logD value. Item: O=c1c2c([nH]c3cc(-c4ccc(-c5ccc(OC(F)(F)F)cc5)cc4)ccc13)CCCC2
output: 3.8

input: Give its logD value. Item: Cc1cc(-c2ccc(OC(F)(F)F)cc2)ccc1-c1ccc2[nH]c3c(c(=O)c2c1)CSCC3
output: 3.6

----------
- assay.summary: method code SF, from DOI: 10.1016/j.ejps.2007.04.003, PMID: 17540545
- recorded.conditions: pH 3.0
assay.endpoint: logD
Give a plain numeric answer without units written out.

input: Give its logD value. Item: CCn1cc(C(=O)O)c(=O)c2cc3c(cc21)OCO3
output: 1.01
